// provenance: ChEMBL document CHEMBL1275583

Tested on: Klebsiella pneumoniae
run description: Antibacterial activity against Klebsiella pneumoniae urine isolate A28011 PFGE pattern A expressing KPC-2 CTX-M-2 beta-lactamase by agar dilution method
Format: functional
Measured MIC, listed per entry.

# molecule, experimental system, MIC
measured = [
    ("CO/N=C(\\C(=O)N[C@@H]1C(=O)N2C(C(=O)O)=C(CSc3nc(=O)c(O)nn3C)CS[C@H]12)c1csc(N)n1 [CEFTRIAXONE]", "Klebsiella pneumoniae", "> 256 mg/L"),
    ("C[C@@H](O)[C@H]1C(=O)N2C(C(=O)O)=C(SCCNC=N)C[C@H]12 [IMIPENEM ANHYDROUS]", "Klebsiella pneumoniae", "16 mg/L"),
]

Ask: Provide MIC value for the following molecule: CO/N=C(\C(=O)N[C@@H]1C(=O)N2C(C(=O)O)=C(COC(C)=O)CS[C@H]12)c1csc(N)n1 [CEFOTAXIME]
Reply: > 256 mg/L

Ask: Provide MIC value for the following molecule: CO/N=C(\C(=O)N[C@@H]1C(=O)N2C(C(=O)[O-])=C(C[N+]3(C)CCCC3)CS[C@H]12)c1csc(N)n1
Reply: > 256 mg/L

====

Test system: Klebsiella pneumoniae
run description: Antibacterial activity against Klebsiella pneumoniae urine isolate A28011 PFGE pattern A expressing KPC-2 CTX-M-2 beta-lactamase by agar dilution method
Assay type: functional
parameter: MIC

Worked cases, MIC given:
# compound, experimental system, MIC
measured = [
    ("C[C@@H](O)[C@H]1C(=O)N2C(C(=O)O)=C(S[C@@H]3CN[C@H](C(=O)N(C)C)C3)[C@H](C)[C@H]12 [MEROPENEM]", "Klebsiella pneumoniae", "> 32 mg/L"),
    ("C[C@H]1[C@H](NC(=O)/C(=N\\OC(C)(C)C(=O)O)c2csc(N)n2)C(=O)N1S(=O)(=O)O [AZTREONAM]", "Klebsiella pneumoniae", "> 256 mg/L"),
    ("CO[C@@]1(NC(=O)Cc2cccs2)C(=O)N2C(C(=O)O)=C(COC(N)=O)CS[C@@H]21 [CEFOXITIN]", "Klebsiella pneumoniae", "> 256 mg/L"),
]

Now examine the next entry.
Ask: Provide MIC value for the following compound: CC(C)(O/N=C(\C(=O)N[C@@H]1C(=O)N2C(C(=O)[O-])=C(C[n+]3ccccc3)CS[C@H]12)c1csc(N)n1)C(=O)O [CEFTAZIDIME]
Reply: 64 mg/L
